Target: sproBACE1 (soluble human BACE1) (Homo sapiens)
Construct: sBACE1, corresponding to amino acids 1-454; made in house; host or cells: Sf9 insect cells (baculovirus); purified from culture supernatant
Sequence (P56817 22-454): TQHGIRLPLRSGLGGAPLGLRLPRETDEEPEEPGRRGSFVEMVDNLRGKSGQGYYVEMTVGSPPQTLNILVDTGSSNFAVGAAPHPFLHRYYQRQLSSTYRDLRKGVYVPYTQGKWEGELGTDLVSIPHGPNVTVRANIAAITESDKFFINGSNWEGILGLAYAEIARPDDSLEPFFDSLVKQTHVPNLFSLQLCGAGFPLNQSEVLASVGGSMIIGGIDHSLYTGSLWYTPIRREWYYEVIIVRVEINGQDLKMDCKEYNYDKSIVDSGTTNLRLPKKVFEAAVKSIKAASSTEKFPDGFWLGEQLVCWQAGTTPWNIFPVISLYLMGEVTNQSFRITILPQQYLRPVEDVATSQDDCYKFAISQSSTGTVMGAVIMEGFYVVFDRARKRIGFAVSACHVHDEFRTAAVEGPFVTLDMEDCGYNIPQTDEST
Assay: Peptide hydrolysis assay (HTRF, EuK-biotin labeled APPsw substrate)
Assay type: biochemical
Conditions: 7 nM sproBACE1, pH 5.0, 3 hr at 30° C.; read-out: Activity (IC50 classification)
Text: A predicted soluble form of human BACE1 (sBACE1, corresponding to amino acids 1-454) was generated from the full length BACE1 cDNA (full length human BACE1 cDNA in pcDNA4/mycHisA construct; University of Toronto) by PCR using the advantage-GC cDNA PCR kit (Clontech, Palo Alto, Calif.). A HindIII/Pmel fragment from pcDNA4-sBACE1 myc/His was blunt ended using Klenow and subcloned into the Stu I site of pFASTBACI(A) (Invitrogen). […]

compound: O=C1N[C@H]([C@H](O)[C@@H]2NCCN(Cc3ccccc3)C2=O)Cc2cc(F)cc(c2)OCCCCN2CC1CC2=O (some centres unmarked) [drawing 72]
IC50: 2 to 1000 nM
--
compound: CCCN1CCCCOc2ccc(cc2)C[C@@H](C(O)C2NCCN(Cc3ccccc3)C2=O)NC(=O)c2cccc(c2)C1=O (some centres unmarked)
IC50: 1000 to 10000 nM

---

Molecular target: sproBACE1 (soluble human BACE1) (Homo sapiens)
Construct: sBACE1, corresponding to amino acids 1-454; made in house; host or cells: Sf9 insect cells (baculovirus); purified from culture supernatant
Experiment: Peptide hydrolysis assay (HTRF, EuK-biotin labeled APPsw substrate)
Format: biochemical
Details: 7 nM sproBACE1, pH 5.0, 3 hr at 30° C.; read-out: IC50
pIC50: −log10 of the molar value.

compound: O=C1N[C@H]([C@H](O)[C@@H]2NCCN(Cc3ccccc3)C2=O)Cc2cc(F)cc(c2)OCCCCN2CC1CC2=O (stereo partly shown) [drawing 69]
testSystem: sproBACE1 (soluble human BACE1) (Homo sapiens)
pIC50: 8.40
